Assay: Cmax in Sprague-Dawley rat at 30 mg/kg, po
Type: ADME, organism-based
Set-up: dose 30 mg/kg, route oral
Conditions: in vivo
recorded-endpoint: Cmax

Suppose we examine the compound `Nc1ccc(NC(=O)c2ccc(C(F)(F)F)cc2)nc1` ; what Cmax value has been reported? 12 µM

----------
Task for the reader: assign each of the following molecules its reported inhibition.
Target: Prostaglandin G/H synthase 1 (Homo sapiens, UniProt P23219)
Sequence (P23219 whole entry): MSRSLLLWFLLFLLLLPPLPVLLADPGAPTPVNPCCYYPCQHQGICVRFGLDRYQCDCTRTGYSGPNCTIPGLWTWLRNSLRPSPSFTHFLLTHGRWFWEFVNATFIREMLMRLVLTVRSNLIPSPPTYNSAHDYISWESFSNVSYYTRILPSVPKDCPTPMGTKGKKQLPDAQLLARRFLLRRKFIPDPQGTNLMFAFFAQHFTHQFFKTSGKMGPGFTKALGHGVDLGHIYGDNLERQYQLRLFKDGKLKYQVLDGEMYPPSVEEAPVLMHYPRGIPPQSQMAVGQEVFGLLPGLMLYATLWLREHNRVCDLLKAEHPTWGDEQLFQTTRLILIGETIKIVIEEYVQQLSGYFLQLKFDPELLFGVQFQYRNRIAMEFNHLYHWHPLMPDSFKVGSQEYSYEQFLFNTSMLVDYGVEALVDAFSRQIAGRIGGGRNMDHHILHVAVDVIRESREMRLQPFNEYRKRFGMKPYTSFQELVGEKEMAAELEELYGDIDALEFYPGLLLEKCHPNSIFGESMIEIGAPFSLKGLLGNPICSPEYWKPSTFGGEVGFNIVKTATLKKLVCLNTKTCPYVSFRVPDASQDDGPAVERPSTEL
Assay: Inhibition of COX1 at 100 uM
Write the answer as a number in %, unit excluded.

Suppose we examine the molecule `Nc1ccc(C(=O)Nc2ccccc2)cc1` ; what inhibition value has been reported? 40

Suppose we examine the molecule `O=C(Nc1ccc(C(F)(F)F)cc1)c1cccc([N+](=O)[O-])c1` ; what inhibition value has been reported? 13

Suppose we examine the molecule `Nc1ccccc1C(=O)Nc1cccc(C(F)(F)F)c1` ; what inhibition value has been reported? 90

Suppose we examine the molecule `O=C(Nc1ccc(C(F)(F)F)cc1)c1ccccc1[N+](=O)[O-]` ; what inhibition value has been reported? 31

Suppose we examine the molecule `Cc1cccc(NC(=O)c2ccccc2N)c1` ; what inhibition value has been reported? 67

Suppose we examine the molecule `CCN(C(=O)c1ccccc1N)c1ccccc1` ; what inhibition value has been reported? 5

----------
Molecular target: Prostaglandin G/H synthase 1 (Homo sapiens, UniProt P23219)
Assay: Inhibition of COX1 at 100 uM
Task for the reader: assign each of the following molecules its reported inhibition.
Write the answer as a number in %, unit excluded.

Suppose we examine the molecule `Cc1ccccc1NC(=O)c1ccccc1N` ; what inhibition value has been reported? 53

Suppose we examine the molecule `Nc1ccccc1C(=O)Nc1ccc(C(F)(F)F)cc1` ; what inhibition value has been reported? 68

Suppose we examine the molecule `Cc1ccc(NC(=O)c2ccc(N)cc2)cc1` ; what inhibition value has been reported? 56

Suppose we examine the molecule `Nc1ccccc1C(=O)Nc1ccccc1C(F)(F)F` ; what inhibition value has been reported? 32

Suppose we examine the molecule `Nc1ccc(C(=O)Nc2ccc(C(F)(F)F)cc2)cc1` ; what inhibition value has been reported? 71

Suppose we examine the molecule `O=C(Nc1ccc(C(F)(F)F)cc1)c1ccc([N+](=O)[O-])cc1` ; what inhibition value has been reported? 0

Suppose we examine the molecule `Cc1ccc(C(=O)Nc2ccc(N)cc2)cc1` ; what inhibition value has been reported? 53

Suppose we examine the molecule `Nc1ccccc1NC(=O)c1ccc(C(F)(F)F)cc1` ; what inhibition value has been reported? 53

Suppose we examine the molecule `COc1ccc(NC(=O)c2ccc(Cl)cc2)cc1` ; what inhibition value has been reported? 35

Suppose we examine the molecule `Nc1cccc(C(=O)Nc2ccc(C(F)(F)F)cc2)c1` ; what inhibition value has been reported? 70

Suppose we examine the molecule `Cc1ccc(NC(=O)c2ccccc2N)cc1` ; what inhibition value has been reported? 57

Suppose we examine the molecule `Nc1ccc(NC(=O)c2ccc(C(F)(F)F)cc2)cc1` ; what inhibition value has been reported? 63

Suppose we examine the molecule `Nc1ccccc1C(=O)Nc1ccccc1` ; what inhibition value has been reported? 64

----------
Target: Prostaglandin G/H synthase 1 (Homo sapiens)
Threshold check on IC50: strictly below 30 µM is Met; on or above 30 µM is Not met.

Dear reviewer, please state whether `Nc1ccccc1C(=O)Nc1cccc(C(F)(F)F)c1` has IC50 strictly beneath 30 µM. Met

Dear reviewer, please state whether `Nc1ccc(C(=O)Nc2ccc(C(F)(F)F)cc2)nc1` has IC50 strictly beneath 30 µM. Not met

Dear reviewer, please state whether `Nc1ccc(NC(=O)c2cccc(C(F)(F)F)c2)nc1` has IC50 strictly beneath 30 µM. Met

Dear reviewer, please state whether `Nc1ccc(C(=O)Nc2ccccc2C(F)(F)F)cc1` has IC50 strictly beneath 30 µM. Not met

Dear reviewer, please state whether `Nc1ccccc1C(=O)Nc1ccccc1C(F)(F)F` has IC50 strictly beneath 30 µM. Not met

Dear reviewer, please state whether `Nc1ccc(C(=O)Nc2ccc(C(F)(F)F)cn2)cc1` has IC50 strictly beneath 30 µM. Met

Dear reviewer, please state whether `Nc1cccc(C(=O)Nc2ccc(C(F)(F)F)cc2)c1` has IC50 strictly beneath 30 µM. Met

Dear reviewer, please state whether `Nc1ccc(NC(=O)c2ccc(C(F)(F)F)cc2)cc1` has IC50 strictly beneath 30 µM. Met

Dear reviewer, please state whether `Nc1ccc(NC(=O)c2ccc(C(F)(F)F)cc2)nc1` has IC50 strictly beneath 30 µM. Met

Dear reviewer, please state whether `Nc1ccccc1NC(=O)c1cccc(C(F)(F)F)c1` has IC50 strictly beneath 30 µM. Not met

Dear reviewer, please state whether `Nc1ccc(C(=O)Nc2cccc(C(F)(F)F)c2)cc1` has IC50 strictly beneath 30 µM. Not met

Dear reviewer, please state whether `Nc1cccc(NC(=O)c2ccccc2C(F)(F)F)c1` has IC50 strictly beneath 30 µM. Not met

Dear reviewer, please state whether `Nc1cccnc1NC(=O)c1ccc(C(F)(F)F)cc1` has IC50 strictly beneath 30 µM. Not met

Dear reviewer, please state whether `COc1ccc(-c2nc(C(=O)N3CCN(C)CC3)sc2-c2ccc(OC)cc2)cc1` has IC50 strictly beneath 30 µM. Met

Dear reviewer, please state whether `Nc1ccccc1NC(=O)c1ccccc1C(F)(F)F` has IC50 strictly beneath 30 µM. Not met

----------
Target: Prostaglandin G/H synthase 1 (Homo sapiens, UniProt P23219)
Assay: Inhibition of COX1 at 100 uM
inhibition below 50% gives No; inhibition at or above it gives Yes.

Record `Cc1ccc(NC(=O)c2ccc(Cl)cc2)cc1` ; criterion: inhibition no lower than 50%. Met? No

Record `Nc1ccccc1C(=O)Nc1ccc(Cl)cc1` ; criterion: inhibition no lower than 50%. Met? Yes

Record `Nc1cccc(NC(=O)c2ccc(C(F)(F)F)cc2)c1` ; criterion: inhibition no lower than 50%. Met? Yes

Record `CCN(C(=O)c1ccccc1N)c1ccc(Cl)cc1` ; criterion: inhibition no lower than 50%. Met? No

Record `Nc1ccc(C(=O)Nc2ccc(Cl)cc2)cc1` ; criterion: inhibition no lower than 50%. Met? Yes

Record `Nc1ccc(NC(=O)c2ccccc2)cc1` ; criterion: inhibition no lower than 50%. Met? Yes
